I'd be grateful if you could share measured pIC50 for these entries.
- study_system: NA of influenza virus A HK/68 (Influenza A virus)
- Sequence (Q91MA2 whole entry, looked up): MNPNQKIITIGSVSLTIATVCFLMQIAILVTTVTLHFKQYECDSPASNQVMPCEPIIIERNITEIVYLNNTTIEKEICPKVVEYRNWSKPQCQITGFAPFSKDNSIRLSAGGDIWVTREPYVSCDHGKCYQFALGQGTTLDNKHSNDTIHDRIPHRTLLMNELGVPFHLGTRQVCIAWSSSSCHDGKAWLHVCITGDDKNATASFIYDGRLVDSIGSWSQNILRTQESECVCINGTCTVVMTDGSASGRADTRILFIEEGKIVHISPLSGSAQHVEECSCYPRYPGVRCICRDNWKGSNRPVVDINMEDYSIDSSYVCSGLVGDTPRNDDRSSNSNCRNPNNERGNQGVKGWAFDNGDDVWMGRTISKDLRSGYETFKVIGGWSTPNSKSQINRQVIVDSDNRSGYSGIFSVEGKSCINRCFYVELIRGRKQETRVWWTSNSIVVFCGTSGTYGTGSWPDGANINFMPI
- protocol: biochemical
Give bare numbers, as −log10 of the molar value.

Some entries whose results are on file:
CC1(C)C=Cc2c(ccc([C@@H]3COc4c(ccc5c4C=CC(C)(C)O5)C3)c2O)O1 = 5.55
CC1(C)C=Cc2c(ccc3c2OCC(O)C3)O1 (stereo not shown) = 4.91
CC(C)=CCc1cc([C@@H]2CC(=O)c3ccc(O)c(CC=C(C)C)c3O2)ccc1O = 5.51

Please turn your attention to the following entry.
What does the data say about its pIC50? Entry: "CC1(C)C=Cc2c(ccc(-c3coc4cc(O)ccc4c3=O)c2O)O1"
5.27

---

Kindly state IC50 for each of the entries shown.
- study_system: NA of influenza virus A PR/8/34 (Influenza A virus, UniProt P03468)
- Sequence (P03468 whole entry, looked up): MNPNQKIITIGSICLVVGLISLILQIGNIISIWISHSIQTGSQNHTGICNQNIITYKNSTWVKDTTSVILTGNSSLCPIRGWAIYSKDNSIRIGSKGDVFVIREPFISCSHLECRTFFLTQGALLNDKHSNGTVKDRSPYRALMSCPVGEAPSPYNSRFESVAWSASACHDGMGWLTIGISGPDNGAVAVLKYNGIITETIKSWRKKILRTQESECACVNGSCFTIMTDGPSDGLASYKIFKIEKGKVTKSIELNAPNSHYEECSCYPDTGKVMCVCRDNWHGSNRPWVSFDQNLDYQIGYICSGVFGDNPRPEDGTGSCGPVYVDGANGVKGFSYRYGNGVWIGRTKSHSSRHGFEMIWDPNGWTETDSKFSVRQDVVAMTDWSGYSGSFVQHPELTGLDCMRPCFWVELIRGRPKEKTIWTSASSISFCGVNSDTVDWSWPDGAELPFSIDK
- protocol: biochemical
- settings: 50% NA inhibitory concentration against influenza virus A PR/8/34
One number for each entry, in nM.

Observe how each entry below is paired with its result.
CC1(C)C=Cc2c(ccc3c2OCC(O)C3)O1 (stereo not shown) [Compound 2] = 6470
O=C1C[C@@H](c2ccc(O)cc2)Oc2cc(O[C@@H]3O[C@H](CO)[C@@H](O)[C@H](O)[C@H]3O)cc(O)c21 [Compound 12, prunin] = 3000
CC1(C)C=Cc2c(ccc(-c3coc4cc(O)ccc4c3=O)c2O)O1 [Compound 5, glabrone] = 400

Read the next record carefully.
Return IC50 measured with NA of influenza virus A PR/8/34 (Influenza A virus, UniProt P03468) given this compound: CC1(C)C=Cc2c(ccc([C@@H]3COc4c(ccc5c4C=CC(C)(C)O5)C3)c2O)O1 [Compound 6, hispaglabridin B]
1110

---

I'd appreciate it if you could supply log10 of IC50 values for the items below.
- study_system: NA of influenza virus A PR/8/34 (Influenza A virus, UniProt P03468)
- protocol: biochemical
- settings: 50% NA inhibitory concentration against influenza virus A PR/8/34
Scale: log10; quantity: IC50; unit before log: nM

Some solved entries appear below for comparison.
C=CCc1ccc(O)c(-c2ccc(O)c(CC=C)c2)c1 [Honokiol, honokiol, reference compound] = 3.48
COc1ccc(-c2coc3cc(O)ccc3c2=O)cc1 = 3.14
O=C1C[C@@H](c2ccc(O[C@@H]3O[C@H](CO)[C@@H](O)[C@H](O)[C@H]3O)cc2)Oc2cc(O)ccc21 = 4.92
CC(C)=CCc1cc([C@@H]2CC(=O)c3ccc(O)c(CC=C(C)C)c3O2)ccc1O = 2.71
O=C1C[C@@H](c2ccc(O)cc2)Oc2cc(O)ccc21 = 3.32

Fill blank: measured log10 of IC50 of the molecule "CC(C)=CCc1c(O)ccc(C(=O)/C=C/c2cc(O)c3c(c2)C=CC(C)(C)O3)c1O" is ____.
2.40
